Where these numbers come from: the supplement of paper PMC5908809

# Test system: KAI3 (IL-2 2.5 ng/mL)
# experiment: drug sensitivity score (DSS) (DSS units); higher = more sensitive; extreme values may be limits of the assay
# conditions: 72 h
Think of 7 as a floor: if drug sensitivity score stands on it or above, it is class 1; beneath it, class 0.

### Prompt Does the reported drug sensitivity score for NC(=O)Nc1cc(-c2cccc(F)c2)sc1C(=O)N[C@H]1CCCNC1 [AZD7762] (max concentration tested 1000 nM) fall at or above the 7 mark?
### Response class 1

### Prompt Moving on to the next molecule: CCCCCCCCc1ccc(CCC(N)(CO)CO)cc1 [Fingolimod] (max concentration tested 10000 nM)
### Response class 1

### Prompt Moving on to the next molecule: O=C(Nc1cc(Cl)cc2c1[nH]c1cnccc12)c1cccnc1 [PS-1145] (max concentration tested 25000 nM)
### Response class 1

### Prompt Moving on to the next molecule: CC(C)Cn1cnc2c(N)nc3ccccc3c21 [Imiquimod] (max concentration tested 2500 nM)
### Response class 0

### Prompt Moving on to the next molecule: O=C(O)CCCc1ccc(N(CCCl)CCCl)cc1 [Chlorambucil] (max concentration tested 10000 nM)
### Response class 1

### Prompt Moving on to the next molecule: CC(C)n1cnc2c(NCCc3ccc(O)cc3)nc(-c3csc4ccccc34)nc21 [StemRegenin 1] (max concentration tested 10000 nM)
### Response class 0

### Prompt Moving on to the next molecule: CN[C@@H](C)C(=O)N[C@H](C(=O)N1CCC[C@H]1c1nc(C(=O)c2ccc(F)cc2)cs1)C1CCCCC1 [LCL161] (max concentration tested 25000 nM)
### Response class 1

### Prompt Moving on to the next molecule: Cc1c(N)nc([C@H](CC(N)=O)NC[C@H](N)C(N)=O)nc1C(=O)N[C@H](C(=O)N[C@H](C)[C@@H](O)[C@H](C)C(=O)N[C@H](C(=O)NCCc1nc(-c2nc(C(=O)NCCC[S+](C)C)cs2)cs1)[C@@H](C)O)[C@@H](OC1OC(CO)C(O)C(O)C1OC1OC(CO)C(O)C(OC(N)=O)C1O)c1cnc[nH]1 (stereo not given in full) [Bleomycin] (max concentration tested 10000 nM)
### Response class 1

### Prompt Moving on to the next molecule: Cn1c(CCCC(=O)O)nc2cc(N(CCCl)CCCl)ccc21 [Bendamustine] (max concentration tested 10000 nM)
### Response class 0

### Prompt Moving on to the next molecule: CCc1cnn2c(NCc3ccc[n+]([O-])c3)cc(N3CCCC[C@H]3CCO)nc12 [Dinaciclib] (max concentration tested 1000 nM)
### Response class 1
